Data provenance: PubChem BioAssay (NCI)

System: CAKI-1 renal
Experiment: NCI tumour cell line growth inhibition, 48 h
REPORTED PROPERTY: TGI (µM)

{"columns": ["MOLECULE", "REPORTED PROPERTY", "INEQUALITY SYMBOL", "OBSERVED RESULT"],
 "data": [
  ["CC(CSc1nc2c(c(=N)n1-c1ccccc1)c(=S)n(-c1ccccc1)c(=S)n2-c1ccccc1)CN(C)C (stereo unspecified)", "TGI", "=", 2.97],
  ["CCCCCCCCCCCCCCCC[N+](C)(C)CCl", "TGI", "=", 8.74],
  ["O=c1[nH]c(NCCCCCO)nc2nc[nH]c12", "TGI", ">", 100],
  ["C[N+](C)([O-])C12CC3CC(CC(C3)C1)C2", "TGI", ">", 100],
  ["Clc1ccc(C2=CC(c3ccccc3)N3C(=N[C@H]4CCCC[C@@H]43)N2)cc1 (stereo partly specified)", "TGI", "=", 26.9],
  ["Fc1nc(Sc2ncnc3nc[nH]c23)nc(-c2c3ccccc3c3sc4ccccc4n23)n1", "TGI", ">", 100]
]}
